System: NCI-H23 lung
assay.summary: NCI tumour cell line growth inhibition, 48 h

[
  {
    "compound": "COC(=O)C12C3C4C5(C(=O)OC)C(C1C35C(=O)N(C(C)C)C(C)C)C42C(=O)N(C(C)C)C(C)C (stereo not given)",
    "TGI": "> 50 µM"
  },
  {
    "compound": "N#CC1Nc2ccccc2[C@@H](O)C1O (stereo not given in full)",
    "TGI": "> 100 µM"
  },
  {
    "compound": "COC(=O)/C=C/C1C(C(=O)OC)C2(C(=O)OC)CCC1(C(=O)OC)N2 (stereo not given)",
    "TGI": "> 100 µM"
  },
  {
    "compound": "C=CCN1C[C@H](C)N([C@H](c2ccc(C(=O)N(CC)CCO)cc2)c2cccc(OC)c2)C[C@H]1C",
    "TGI": "> 100 µM"
  },
  {
    "compound": "NC(=O)C(=CNc1nc(-c2ccc(Cl)c(Cl)c2)cs1)C(N)=O",
    "TGI": "> 100 µM"
  }
]
